# ASSAY_TARGET: equine BChE (eqBChE) (Equus caballus, UniProt P81908)
# Construct: purchased Sigma-Aldrich (Milan, Italy)
# Sequence (P81908 whole entry): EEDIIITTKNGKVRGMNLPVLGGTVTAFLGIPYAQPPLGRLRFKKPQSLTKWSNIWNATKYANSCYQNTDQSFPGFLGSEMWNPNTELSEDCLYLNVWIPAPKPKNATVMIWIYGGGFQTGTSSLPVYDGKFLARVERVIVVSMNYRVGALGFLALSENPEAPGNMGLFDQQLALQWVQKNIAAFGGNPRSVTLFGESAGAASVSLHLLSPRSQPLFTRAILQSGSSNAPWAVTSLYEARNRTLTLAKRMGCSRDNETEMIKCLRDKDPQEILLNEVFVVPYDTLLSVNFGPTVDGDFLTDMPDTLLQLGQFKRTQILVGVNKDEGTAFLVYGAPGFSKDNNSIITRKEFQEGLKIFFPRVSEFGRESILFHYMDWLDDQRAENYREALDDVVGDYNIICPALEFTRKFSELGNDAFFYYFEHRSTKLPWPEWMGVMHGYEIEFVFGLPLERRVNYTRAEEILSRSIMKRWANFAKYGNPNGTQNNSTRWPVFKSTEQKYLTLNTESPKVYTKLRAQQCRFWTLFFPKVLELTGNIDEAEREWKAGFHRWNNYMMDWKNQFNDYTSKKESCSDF
# ASSAY_OVERVIEW: Ellman's spectrophotometric method, percent inhibition of eqBChE (zero time and after 1 h incubation)
# Assay type: biochemical
# MEASUREMENT_PARAMETERS: 1 h, [I] = 900 nM, t = 1 h incubation at 25 °C; read-out: % Inhibition vs. eqBChE ± SD
# Description: Regarding the synthesized compounds enzymatic inhibition studies were carried out on Electrophorus electricus AChE (EeAChE) and equine BChE (eqBChE), according to Ellman’s spectrophotometric method. All other chemical and biological reagents and solvents used were of the highest analytical, commercially available grade. […]
ENDPOINT_NAME: inhibition at 0.9 µM (%)
Please give a number only; it is taken to be in %.

[in] Look at this molecule and give its reported inhibition at 0.9 µM. `O=C(NCCCCCCNc1ncccn1)OCc1ccccc1`
[out] 13.3

[in] Look at this molecule and give its reported inhibition at 0.9 µM. `O=C(NCCCCCCNc1ncccn1)Oc1ccccc1`
[out] 66.4

[in] Look at this molecule and give its reported inhibition at 0.9 µM. `O=C(NCCCCCCNc1ccccn1)OCc1ccccc1`
[out] 32.4

[in] Look at this molecule and give its reported inhibition at 0.9 µM. `O=C(NCCCCCCNc1ccccn1)Oc1ccccc1`
[out] 79.6

====

# ASSAY_TARGET: equine BChE (eqBChE) (Equus caballus, UniProt P81908)
# Construct: purchased Sigma-Aldrich (Milan, Italy)
# ASSAY_OVERVIEW: Ellman's spectrophotometric method, percent inhibition of eqBChE (zero time and after 1 h incubation)
# Assay type: biochemical
# MEASUREMENT_PARAMETERS: [I] 900 nM; 0.0833 U/mL enzyme, 100 µM acetylthiocholine; read-out: % Inhibition vs. eqBChE ± SD
ENDPOINT_NAME: inhibition at 0.9 µM (%)
Please give a number only; it is taken to be in %.

[in] Look at this molecule and give its reported inhibition at 0.9 µM. `O=C(Cc1ccccc1)NCCCCCCNc1ccccn1`
[out] 4.3

[in] Look at this molecule and give its reported inhibition at 0.9 µM. `O=C(NCCCCCCNc1ncccn1)c1cc2ccccc2[nH]1`
[out] 14.1

[in] Look at this molecule and give its reported inhibition at 0.9 µM. `O=C(C=Cc1ccccc1)NCCCCCCNc1ccccn1`
[out] 31.5

[in] Look at this molecule and give its reported inhibition at 0.9 µM. `O=C(Cc1ccc(Oc2ccccc2)cc1)NCCCCCCNc1ccccn1`
[out] 45

[in] Look at this molecule and give its reported inhibition at 0.9 µM. O=C(NCCCCCCNc1ccccn1)c1ccccc1 [Compound 12, N-(6-(pyridin-2-ylamino)hexyl)benzamide]
[out] 22

====

Would you mind telling me the reported inhibition at 9 µM of each entry?
# ASSAY_TARGET: equine BChE (eqBChE) (Equus caballus)
# Construct: purchased Sigma-Aldrich (Milan, Italy)
# ASSAY_OVERVIEW: Ellman's spectrophotometric method, percent inhibition of eqBChE (zero time and after 1 h incubation)
# Type: biochemical
# MEASUREMENT_PARAMETERS: [I] 9 µM; 0.0833 U/mL enzyme, 100 µM acetylthiocholine; read-out: % Inhibition vs. eqBChE ± SD
Please give a number only; it is taken to be in %.

[in] Look at this molecule and give its reported inhibition at 9 µM. O=C(NCCCCCCNc1ccccn1)c1ccccc1 [Compound 12, N-(6-(pyridin-2-ylamino)hexyl)benzamide]
[out] 81

[in] Look at this molecule and give its reported inhibition at 9 µM. O=C(NCCCCCCNc1ncccn1)c1ccc(Cl)cc1 [Compound 8]
[out] 2.1

[in] Look at this molecule and give its reported inhibition at 9 µM. O=C(Cc1ccccc1)NCCCCCCNc1ccccn1 [Compound 13]
[out] 49.1

[in] Look at this molecule and give its reported inhibition at 9 µM. O=C(C=Cc1ccccc1)NCCCCCCNc1ccccn1 [Compound 15]
[out] 64.7

[in] Look at this molecule and give its reported inhibition at 9 µM. O=C(Cc1ccc(Oc2ccccc2)cc1)NCCCCCCNc1ccccn1 [Compound 14]
[out] 88

[in] Look at this molecule and give its reported inhibition at 9 µM. O=C(Cc1ccccc1)NCCCCCCNc1ncccn1 [Compound 4]
[out] 5.1

[in] Look at this molecule and give its reported inhibition at 9 µM. O=C(NCCCCCCNc1ncccn1)c1ccc(Br)cc1 [Compound 7]
[out] 7.4

[in] Look at this molecule and give its reported inhibition at 9 µM. O=C(Cc1ccc(Oc2ccccc2)cc1)NCCCCCCNc1ncccn1 [Compound 5]
[out] 16.6

[in] Look at this molecule and give its reported inhibition at 9 µM. COc1ccccc1C(=O)NCCCCCCNc1ncccn1 [Compound 9]
[out] 9.3
